Data credit: patent US9102648B1

# protocol_summary: Determination of LC Log P (experimental)
# Assay type: physicochemical
# reported_conditions: diacylhydrazine log P standards (log P known experimentally)
assay_endpoint: logP
API doc: respond with a numeric literal and nothing else, no unit.

{"molecule": "CC(C)(C)N(NC(=O)c1ccc(Cl)cc1)C(=O)c1ccccc1", "quantitative_readout": 3.2}

*Q* // logP lookup, key: Cc1cc(C)cc(C(=O)N(NC(=O)c2cccc(O)c2C)C(C)(C)C)c1 [RG-102208, reference compound]
*A* 2.9

*Q* // lookup logP for CCc1c(OC)cccc1C(=O)NN(C(=O)c1cc(C)cc(C)c1)C(C)(C)C
*A* 4.2

*Q* # lookup: logP of CCc1c(C(=O)NN(C(=O)c2ccc(F)cc2Cl)C(C)(C)C)ccc2c1OCOC2 [RG-115002, reference compound]
*A* 3.5

*Q* Entry COc1cccc(C(=O)NN(C(=O)c2cc(C)cc(C)c2)C(C)(C)C)c1C : reported logP = ?
*A* 3.7

*Q* Give the measured logP of CCc1ccc(C(=O)NN(C(=O)c2cc(Cl)cc(Cl)c2)C(C)(C)C)c(F)c1 [RG-115372, reference compound] .
*A* 5.02
